biological target: T1, cynomolgus monkey IL-21R expressed on cells (cynomolgus monkey, UniProt G7Q0S8 41-559); assay: cell-based ELISA on CHO cells transiently expressing cynomolgus monkey IL-21R; HRP anti-human IgG, A450
T1 construct: whole, on cells
Answer each item with its documented EC50 (read off the curve).

Ask: Report measured EC50 (read off the curve); entry is parental 18A5 antibody (antibody, V domains shown, also called 18A5 IgG) VH: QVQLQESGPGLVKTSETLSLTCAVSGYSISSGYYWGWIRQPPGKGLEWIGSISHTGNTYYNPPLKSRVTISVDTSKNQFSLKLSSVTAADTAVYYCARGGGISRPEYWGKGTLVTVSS VL: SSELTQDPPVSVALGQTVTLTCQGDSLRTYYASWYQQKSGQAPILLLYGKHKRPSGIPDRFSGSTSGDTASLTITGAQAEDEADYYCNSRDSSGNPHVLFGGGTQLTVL
Reply: ~0.4 nM

Ask: Report measured EC50 (read off the curve); entry is AbU (antibody, human IgG1, V domains shown, CDR3 graft, residue limits derived as for m29; also called VHP/VL25; VHPTM/VL25) VH: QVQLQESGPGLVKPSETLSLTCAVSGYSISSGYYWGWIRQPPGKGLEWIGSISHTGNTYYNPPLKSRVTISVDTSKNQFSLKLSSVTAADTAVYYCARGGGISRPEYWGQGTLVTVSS VL: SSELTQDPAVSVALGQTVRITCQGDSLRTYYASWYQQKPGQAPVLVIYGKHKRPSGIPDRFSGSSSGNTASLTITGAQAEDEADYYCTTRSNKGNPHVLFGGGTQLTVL
Reply: ~0.7 nM

Ask: Report measured EC50 (read off the curve); entry is AbA (antibody, V domains shown, Human IgG1/lambda, transiently expressed; also called VHP/VL2) VH: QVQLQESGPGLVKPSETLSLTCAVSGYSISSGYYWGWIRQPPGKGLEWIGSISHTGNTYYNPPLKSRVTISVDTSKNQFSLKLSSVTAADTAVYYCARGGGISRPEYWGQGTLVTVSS VL: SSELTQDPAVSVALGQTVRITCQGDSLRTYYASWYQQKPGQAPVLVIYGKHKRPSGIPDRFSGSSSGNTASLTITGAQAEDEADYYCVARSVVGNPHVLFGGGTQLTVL
Reply: ~0.5 nM

Ask: Report measured EC50 (read off the curve); entry is AbJ (antibody, IgG1, V domains shown, As for AbA: IgG1/lambda, CDR3 graft, residue limits derived; also called VH3/VLP) VH: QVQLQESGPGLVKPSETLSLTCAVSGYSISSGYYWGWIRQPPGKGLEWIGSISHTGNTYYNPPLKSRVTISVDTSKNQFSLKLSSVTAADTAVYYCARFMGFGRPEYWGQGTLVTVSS VL: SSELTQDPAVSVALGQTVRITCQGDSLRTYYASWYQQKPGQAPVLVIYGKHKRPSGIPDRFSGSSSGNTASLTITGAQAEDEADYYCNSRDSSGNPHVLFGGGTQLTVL
Reply: ~0.3 nM

Ask: Report measured EC50 (read off the curve); entry is AbH (antibody, IgG1, V domains shown, As for AbA: IgG1/lambda, CDR3 graft, residue limits derived; also called VHP/VL19) VH: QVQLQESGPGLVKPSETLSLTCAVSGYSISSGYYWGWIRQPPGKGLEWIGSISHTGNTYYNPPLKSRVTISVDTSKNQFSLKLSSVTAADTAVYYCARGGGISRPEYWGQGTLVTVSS VL: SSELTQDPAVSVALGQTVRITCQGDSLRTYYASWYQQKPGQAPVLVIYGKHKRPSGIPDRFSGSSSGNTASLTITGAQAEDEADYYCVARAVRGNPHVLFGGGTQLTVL
Reply: ~0.5 nM

Ask: Report measured EC50 (read off the curve); entry is AbI (antibody, IgG1, V domains shown, As for AbA: IgG1/lambda, CDR3 graft, residue limits derived; also called VHP/VL24) VH: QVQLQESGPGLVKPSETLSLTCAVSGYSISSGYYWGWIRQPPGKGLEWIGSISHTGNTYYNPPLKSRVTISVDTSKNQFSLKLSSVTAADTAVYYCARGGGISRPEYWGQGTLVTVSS VL: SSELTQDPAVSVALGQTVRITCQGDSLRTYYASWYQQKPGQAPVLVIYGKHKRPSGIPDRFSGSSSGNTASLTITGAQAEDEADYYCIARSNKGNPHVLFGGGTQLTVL
Reply: ~0.4 nM

Ask: Report measured EC50 (read off the curve); entry is AbP (antibody, human IgG1, V domains shown, CDR3 graft, residue limits derived as for m29; also called VHP/VL20; VHPTM/VL20) VH: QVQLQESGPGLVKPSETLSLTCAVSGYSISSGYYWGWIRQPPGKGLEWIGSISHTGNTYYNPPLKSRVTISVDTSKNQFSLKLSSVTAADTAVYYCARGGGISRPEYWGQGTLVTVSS VL: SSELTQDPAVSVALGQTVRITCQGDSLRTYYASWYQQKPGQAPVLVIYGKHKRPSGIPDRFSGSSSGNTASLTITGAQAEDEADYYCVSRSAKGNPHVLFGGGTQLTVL
Reply: ~0.7 nM

Provenance of the data: patent US20120276102A1
